Test system: TK-10 renal
Assay: NCI tumour cell line growth inhibition, 48 h
Where a SMILES comes first, the peptide text is derived from it. The star is where a group is joined. Boc = CC(C)(C)OC(=O)*
// TGI lookup, one value per entry

{"Molecule": "C=CCC1(OCc2ccccc2)C(=O)C(=O)OC1C1COC(C)(C)O1 (stereo unspecified)", "TGI": "> 100 µM"}
{"Molecule": "O=C(O)c1cc2c(ncc3c(=O)n(-c4ccccc4)[nH]c32)s1", "TGI": "> 100 µM"}
{"Molecule": "CC1(/C=C/CCSc2ccccc2)CC(=O)C2CC1C2(C)C (stereo unspecified)", "TGI": "> 70.1 µM"}
{"Molecule": "COc1cc2c3c(n(C)c(=O)c2cc1OC)-c1cc2c(cc1/C3=C\\CCCCN1C(=O)c3ccccc3C1=O)OCO2", "TGI": "29.1 µM"}
{"Molecule": "Nc1n[n+](CC(=O)c2ccccc2)c2sc(-c3ccccc3)nn12", "TGI": "> 100 µM"}

stdin: // map CC(C)(C)OC(=O)NC(Cc1ccc(O)cc1)C(=O)N1CCCC1C(=O)O (stereo not drawn) (Boc-Tyr-Pro-OH; configuration not given here) to recorded TGI (system: TK-10 renal)
stdout: > 100 µM

stdin: Notebook entry, TK-10 renal assay: TGI of "O=S1(=O)OCCOS(=O)(=O)C1(F)Br" = ?
stdout: > 100 µM

stdin: Write down the reported TGI of NC(=O)c1csc(C2OC(CO)C(O)C2O)n1 (stereo unspecified) , test system: TK-10 renal.
stdout: > 10000 µM

stdin: Recall the recorded TGI for "Cn1c(=O)c2[nH]c(CCNC(=O)c3ccccc3)nc2n(C)c1=O" with TK-10 renal and state it.
stdout: > 100 µM

stdin: Please tell me: TGI of "C[n+]1ccc(/C2=C3\C=CC(=N3)/C(c3cc[n+](C)cc3)=c3/cc/c([nH]3)=C(\c3cc[n+](C)cc3)C3=N/C(=C(/c4cc[n+](C)cc4)C4C=CC2N4)C=C3)cc1" , system TK-10 renal?
stdout: > 100 µM

stdin: Notebook: pull reported TGI for TK-10 renal, entry COC1/C=C/C(C)C(C(C)C(OC)C(C)CCC(=O)C(C)C(C/C=C/N(C)C=O)OC)OC(=O)C=CC2OC2(C)CC(OC)C(OC)C2=CC(=O)O[C@@H](C(C)C(OC)CC(OC)/C=C/C(C)C(O)C1)[C@H]2O (stereo partly specified)
stdout: 0.0304 µM

stdin: Observed TGI on TK-10 renal for COC(=O)[C@@H]1[C@H](OC(C)=O)CCC2[C@@]3(C[C@@H](c4ccoc4)O[C@@H]3OC)[C@H](C)CC[C@]21C(=O)OC (stereo partly specified) , please.
stdout: > 25 µM

stdin: Query the reported TGI for TK-10 renal; item: "CC1=NC(=Cc2cccc(Cl)c2)C(=O)N1n1c(-c2ccccc2)nc2ccccc2c1=O"
stdout: > 100 µM

stdin: For TK-10 renal, provide TGI of "COc1cc2nc(N3CCCC3)nc(NCCc3ccccc3)c2cc1OC" please.
stdout: 3.56 µM

stdin: Given the entry "O=[N+]([O-])c1nccn1CCCNc1ccnc2cc(Cl)ccc12" , what TGI was observed with TK-10 renal?
stdout: > 11.7 µM

###

Test system: MALME-3M melanoma
Assay: NCI tumour cell line growth inhibition, 48 h
Parameter: TGI

{"Compound": "COc1cc(C(=O)C/C(CCC(=O)Nc2ccccc2[N+](=O)[O-])=N\\NC(N)=O)ccc1O", "Meas value": "> 100 µM"}
{"Compound": "NCCSS(=O)(=O)CCN", "Meas value": "> 100 µM"}
{"Compound": "CO/N=C(\\COc1ccc2c(c1)[nH]c1ccccc12)c1ccc(F)cc1", "Meas value": "> 100 µM"}

stdin: What does the record list as TGI for "CN(C)CCCN1c2ccccc2Sc2ccc3ccccc3c21" ?
stdout: 21.6 µM

stdin: # input compound: CCOC(=O)C1C(c2ccc3c(c2)OCO3)c2c([nH][nH]c2=O)CC1(C)O (stereo unspecified) ; wanted: its TGI
stdout: > 100 µM

stdin: Dear colleague, I am looking for the recorded TGI of the following compound: O=C1OC2(CC1C1(O)C3CC4CC(C3)CC1C4)C1CC3CC(C1)CC2C3 (stereo unspecified)
stdout: > 100 µM

stdin: Quick check: TGI of "CC(C)NCCCn1c(Sc2cc3c(cc2I)OCO3)nc2c(N)ncnc21" ?
stdout: 2.12 µM

stdin: Dear colleague, I am looking for the recorded TGI of the following compound: "CC1=NN(C(=O)c2ccncc2)C(=O)C1"
stdout: > 100 µM
